Test: Selectivity index, ratio of CC50 for human TZM-bl cells to EC50 for HIV1 NL4-3
Type: toxicity, cell-based
Settings: read-out: Ratio CC50/EC50
Listing of entries alongside the reported selectivity ratio.
# respond with the number and nothing more

Notebook: O=C(O)/C(O)=C/C(=O)c1cn(Cc2ccc(F)cc2)c2ccc(OCc3ccc(F)cc3)cc2c1=O , selectivity ratio read as 1000

Just so you know, measured selectivity ratio for O=C(O)/C(O)=C/C(=O)c1cn(Cc2ccc(F)cc2)c2ccc(Br)cc2c1=O came out at 250

selectivity ratio reading for O=C(O)/C=C/c1ccc2c(c1)c(=O)c(C(=O)/C=C(\O)C(=O)O)cn2Cc1ccc(F)cc1 : 200

Per the record, CCOC(=O)/C=C/c1ccc2c(c1)c(=O)c(C(=O)/C=C(\O)C(=O)OCC)cn2Cc1ccc(F)cc1 has selectivity ratio of 7

Consider CCOC(=O)/C(O)=C/C(=O)c1cn(Cc2ccc(F)cc2)c2ccc(OCc3ccc(F)cc3)cc2c1=O . Its measured selectivity ratio is 77

The measurements presented in this section are drawn from ChEMBL document CHEMBL1770150.
